- tgt: HLA-DQ2 (DQA1*0501, DQB1*0201) (human (endogenous in B-LCL))
- method.notes: affinity purification with mass spectrometry
pmol of peptide eluted from 50 μg of affinity-purified class II reference
Please reply with the bare figure in pmol and do not write the unit itself.

| binder | readout.number |
| --- | --- |
| PKPPKPVSKMRMATPLLMQALP [Ii82-103] | 16.5 |
| MATPLLMQALPMGALP [Ii93-108] | 159 |
| LPKPPKPVSKMRMATPLLMQALP [Ii81-103] | 79.5 |

Next binder, please.
Input: Entry LPKPPKPVSKMRMATPLLMQA [Ii81-101] needs its pmol of peptide eluted from 50 μg of affinity-purified class II filled in; supply it.
Output: 31.5
